# Test system: NCI-H322M (Lung Adenocarcinoma);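 note: after 72 h of two-drug dosing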
# Protocol Summary: Bliss excess, mean over the matrix (fraction); higher = more synergy
Readout Kind: Bliss excess

compound="Cc1nc(Nc2ncc(C(=O)Nc3c(C)cccc3Cl)s2)cc(N2CCN(CCO)CC2)n1 [Dasatinib] + CC(=O)Nc1cccc(-n2c(=O)n(C3CC3)c(=O)c3c(Nc4ccc(I)cc4F)n(C)c(=O)c(C)c32)c1 [Trametinib] (first compound max 2 µM, 7x7, partner max 1 µM)" readout_kind="Bliss excess" numeric_readout=0.0004
compound="NC1(C(=O)N[C@@H](CCO)c2ccc(Cl)cc2)CCN(c2ncnc3[nH]ccc23)CC1 [Capivasertib] + C[C@@H]1COCCN1C2=NC(=NC(=C2)C3(CC3)[S@](=N)(=O)C)C4=C5C=CNC5=NC=C4 [AZD6738] (first compound max 10 µM, 7x7, partner max 10 µM)" readout_kind="Bliss excess" numeric_readout=-0.0797
compound="COc1cccc(OCCCN)c1-c1cc(Nc2cnc(C#N)cn2)n[nH]1 [Prexasertib] + O=C(c1cc(Cc2n[nH]c(=O)c3ccccc23)ccc1F)N1CCN(C(=O)C2CC2)CC1 [Olaparib] (first compound max 1 µM, 7x7, partner max 10 µM)" readout_kind="Bliss excess" numeric_readout=-0.126
compound="Cc1cc2ncnn2cc1Nc1ncc2c(n1)n(C1CCOCC1)c(=O)n2C [AZD7648] + C[C@@H]1COCCN1C2=NC(=NC(=C2)C3(CC3)[S@](=N)(=O)C)C4=C5C=CNC5=NC=C4 [AZD6738] (first compound max 10 µM, 7x7, partner max 10 µM)" readout_kind="Bliss excess" numeric_readout=-0.0048
compound="COc1nnc2ccc(N3CCC(c4ccc(OCCN5CCN(C)C(=O)[C@H]5C)cc4)CC3)nn12 [AZD5153] + CN(CC[C@H](CSC1=CC=CC=C1)NC2=C(C=C(C=C2)S(=O)(=O)NC(=O)C3=CC=C(C=C3)N4CCC(CC4)[C@H](C5=CC=CC=C5C6=CC=C(C=C6)Cl)O)S(=O)(=O)C(F)(F)F)CCO [AZD4320] (first compound max 1 µM, 7x7, partner max 1 µM)" readout_kind="Bliss excess" numeric_readout=0.0066
compound="CC1(C)CCC(CN2CCN(c3ccc(C(=O)NS(=O)(=O)c4ccc(NCC5CCOCC5)c([N+](=O)[O-])c4)c(Oc4cnc5[nH]ccc5c4)c3)CC2)=C(c2ccc(Cl)cc2)C1 [Venetoclax] + Cn1cnc2c(F)c(Nc3ccc(Br)cc3Cl)c(C(=O)NOCCO)cc21 [Selumetinib] (first compound max 1 µM, 7x7, partner max 3 µM)" readout_kind="Bliss excess" numeric_readout=-0.0124
compound="Cn1cnc2c(F)c(Nc3ccc(Br)cc3Cl)c(C(=O)NOCCO)cc21 [Selumetinib] + C=CCn1c(=O)c2cnc(Nc3ccc(N4CCN(C)CC4)cc3)nc2n1-c1cccc(C(C)(C)O)n1 [AZD1775] (first compound max 10 µM, partner max 1 µM)" readout_kind="Bliss excess" numeric_readout=-0.0097
compound="C[C@@H](c1ccc2nccn2c1)n1nnc2ncc(-c3cnn(C)c3)nc21 [Savolitinib] + CN(CC[C@H](CSC1=CC=CC=C1)NC2=C(C=C(C=C2)S(=O)(=O)NC(=O)C3=CC=C(C=C3)N4CCC(CC4)[C@H](C5=CC=CC=C5C6=CC=C(C=C6)Cl)O)S(=O)(=O)C(F)(F)F)CCO [AZD4320] (first compound max 1 µM, 7x7, partner max 1 µM)" readout_kind="Bliss excess" numeric_readout=-0.0487
